tested on: NCI-H1299; test: relative viability (nuclei count vs DMSO), 5 days (fraction); higher = more cells survive; conditions: first compound 0.04 µM
recorded metric: relative viability
Give the value as a plain number.

Sample answers from the record:
| compound | relative viability |
| --- | --- |
| C[C@@H]1CN(CC(=O)Nc2ccc3c(c2)Cc2cccc(-c4cc(=O)cc(N5CCOCC5)o4)c2S3)C[C@H](C)O1 + COc1cc2c(Oc3ccc(NC(=O)C4(C(=O)Nc5ccc(F)cc5)CC4)cc3F)ccnc2cc1OCCCN1CCOCC1 [Foretinib] (partner 0.25 µM) | 1.11 |
| Clc1ccc(Nc2nnc(Cc3ccncc3)c3ccccc23)cc1 [Vatalanib] + CS(=O)(=O)CCNCc1ccc(-c2ccc3ncnc(Nc4ccc(OCc5cccc(F)c5)c(Cl)c4)c3c2)o1 [Lapatinib] (partner 2 µM) | 0.96 |
| C[C@@H]1CN(CC(=O)Nc2ccc3c(c2)Cc2cccc(-c4cc(=O)cc(N5CCOCC5)o4)c2S3)C[C@H](C)O1 + C[C@]1(O)C[C@@H](c2nc(-c3ccc4ccc(-c5ccccc5)nc4c3)c3c(N)nccn32)C1 [Linsitinib] (partner 1 µM) | 1.01 |
| COc1cc(N2CCC(C(N)=O)CC2)ccc1Nc1nc(N)c(Cl)c(Nc2ccccc2S(=O)(=O)C(C)C)n1 [HG-5-88-01] + CC1(C)CCC(c2ccc(Cl)cc2)=C(CN2CCN(c3ccc(C(=O)NS(=O)(=O)c4ccc(N[C@H](CCN5CCOCC5)CSc5ccccc5)c(S(=O)(=O)C(F)(F)F)c4)cc3)CC2)C1 [Navitoclax] (partner 0.5 µM) | 1.03 |

-- ask Name the recorded relative viability of the item COc1cc(N2CCC(C(N)=O)CC2)ccc1Nc1nc(N)c(Cl)c(Nc2ccccc2S(=O)(=O)C(C)C)n1 [HG-5-88-01] + C[C@@H](Oc1cc(-c2cnn(C3CCNCC3)c2)cnc1N)c1c(Cl)ccc(F)c1Cl [Crizotinib] (partner 1 µM) in your answer.
-- reply 0.992

-- ask Name the recorded relative viability of the item COc1cc(N2CCC(C(N)=O)CC2)ccc1Nc1nc(N)c(Cl)c(Nc2ccccc2S(=O)(=O)C(C)C)n1 [HG-5-88-01] + CC(C)C[C@H](NC(=O)[C@H](Cc1ccccc1)NC(=O)c1cnccn1)B(O)O [Bortezomib] (partner 0.002 µM) in your answer.
-- reply 1.02

-- ask Name the recorded relative viability of the item COc1cc(N2CCC(C(N)=O)CC2)ccc1Nc1nc(N)c(Cl)c(Nc2ccccc2S(=O)(=O)C(C)C)n1 [HG-5-88-01] + COc1cc2c(Oc3ccc(NC(=O)C4(C(=O)Nc5ccc(F)cc5)CC4)cc3F)ccnc2cc1OCCCN1CCOCC1 [Foretinib] (partner 0.25 µM) in your answer.
-- reply 1.05
